# Assay Protocol: Metabolic stability in rat liver microsomes assessed as intrinsic clerance at 1 uM and measured upto 60 mins by HPLC-MS/MS analysis
# Format: ADME, Microsome
# Test Parameters: liver microsomes, read-out: CLH
Property Measured: microsomal CLint at 1 µM (µL/min/mg)
Write the number in µL/min/mg without appending the unit.

Ask: Supply measured microsomal CLint at 1 µM of COc1ccc([C@H](Cc2c(Cl)c[n+]([O-])cc2Cl)OC(=O)c2ccc(CN[C@@H](C(=O)O[C@H]3CN4CCC3CC4)c3ccccc3)s2)cc1OC in your reply.
Reply: 126

* * *

# Assay Protocol: Toxicity in pilocarpine hydrochloride induced salivation Sprague-Dawley rat model assessed as inhibition of salivary secretion at 3 mM,INH for 10 mins
# Test Parameters: Sprague-Dawley, in vivo, inhaled or intranasal, read-out: Activity
Property Measured: inhibition at 10 min, 3000 µM (%)
Write the number in % without appending the unit.

Ask: Supply measured inhibition at 10 min, 3000 µM of C[N+]1(C)[C@@H]2C[C@@H](OC(=O)C(O)(c3cccs3)c3cccs3)C[C@H]1[C@@H]1O[C@@H]12 [TIOTROPIUM] in your reply.
Reply: 62
